Reference source for all entries: patent US20090124587A1

assay-overview: Food effect PK study, two single oral 1000 mg doses of abiraterone acetate, fed (high fat) vs fasted
Format: in vivo, human
test-parameters: human, plasma, po, 1000 mg, mean; 1000 mg single oral dose; Fasted
property: AUC(0-t) (µM·h)

- C[C@]12CC[C@H](O)CC1=CC[C@@H]1[C@@H]2CC[C@]2(C)C(c3cccnc3)=CC[C@@H]12: 5.03

----------
assay-overview: Pharmacokinetic study of abiraterone in hormone refractory prostate cancer patients, oral doses 250-2000 mg/day, fasted
Assay type: in vivo, human
test-parameters: male, human; mean; 1000 mg/day abiraterone acetate oral, fasted; plasma
property: Cmax (nM)

• C[C@]12CC[C@H](O)CC1=CC[C@@H]1[C@@H]2CC[C@]2(C)C(c3cccnc3)=CC[C@@H]12 = 659

----------
assay-overview: Food effect PK study, two single oral 1000 mg doses of abiraterone acetate, fed (high fat) vs fasted
Format: in vivo, human
test-parameters: human, plasma, oral, 1000 mg, Patient 19; Fasted
property: AUC(0-inf) (µM·h)

- C[C@]12CC[C@H](O)CC1=CC[C@@H]1[C@@H]2CC[C@]2(C)C(c3cccnc3)=CC[C@@H]12 [Abiraterone]: 3.91

----------
assay-overview: Food effect PK study, two single oral 1000 mg doses of abiraterone acetate, fed (high fat) vs fasted
Format: in vivo, human
test-parameters: human, plasma, oral, 1000 mg, Patient 14; Fed; sample time 6.000 hr
property: concentration at 6 hr (nM)

• C[C@]12CC[C@H](O)CC1=CC[C@@H]1[C@@H]2CC[C@]2(C)C(c3cccnc3)=CC[C@@H]12 [Abiraterone] = 516

----------
assay-overview: Food effect PK study, two single oral 1000 mg doses of abiraterone acetate, fed (high fat) vs fasted
Format: in vivo, human
test-parameters: human, plasma, oral, 1000 mg, Patient 13; Fed; sample time 2.000 hr
Protocol: To measure the amount of abiraterone and abiraterone acetate in the samples, these compounds were extracted from 100 uL human plasma using solid phase extraction (SPE) with cation mixed-mode polymer cartridges. Extracts were evaporated to dryness before reconstitution and analysis. Chromatography was carried out using a Luna™ C5 column (5 μm, 50 mm×2.1 mm id) with a gradient mobile phase consisting of 10 mM ammonium acetate and 2% propan-2-ol in acetonitrile. […]
property: concentration at 2 h (nM)

* C[C@]12CC[C@H](O)CC1=CC[C@@H]1[C@@H]2CC[C@]2(C)C(c3cccnc3)=CC[C@@H]12 | 675

----------
assay-overview: Food effect PK study, two single oral 1000 mg doses of abiraterone acetate, fed (high fat) vs fasted
Assay type: in vivo, human
test-parameters: human, plasma, oral, 1000 mg, Patient 15; 1000 mg; Fed; read-out: Cl F obs (converted)
property: clearance (mL/min)

• C[C@]12CC[C@H](O)CC1=CC[C@@H]1[C@@H]2CC[C@]2(C)C(c3cccnc3)=CC[C@@H]12 [Abiraterone] = 4610

----------
assay-overview: Food effect PK study, two single oral 1000 mg doses of abiraterone acetate, fed (high fat) vs fasted
Assay type: in vivo, human
test-parameters: human, plasma, oral, 1000 mg, Patient 21; Fasted; sample time 8.050
property: concentration at 8.05 h (nM)

- C[C@]12CC[C@H](O)CC1=CC[C@@H]1[C@@H]2CC[C@]2(C)C(c3cccnc3)=CC[C@@H]12: 231

----------
assay-overview: Food effect PK study, two single oral 1000 mg doses of abiraterone acetate, fed (high fat) vs fasted
Assay type: in vivo, human
test-parameters: human, plasma, oral, 1000 mg, Patient 14; Fed; sample time 7.983 hr
property: concentration at 7.983 hr (nM)

- C[C@]12CC[C@H](O)CC1=CC[C@@H]1[C@@H]2CC[C@]2(C)C(c3cccnc3)=CC[C@@H]12: 335

----------
assay-overview: Food effect PK study, two single oral 1000 mg doses of abiraterone acetate, fed (high fat) vs fasted
Assay type: in vivo, human
test-parameters: human, plasma, oral, 1000 mg, Patient 14; Fed
Description: To measure the amount of abiraterone and abiraterone acetate in the samples, these compounds were extracted from 100 uL human plasma using solid phase extraction (SPE) with cation mixed-mode polymer cartridges. Extracts were evaporated to dryness before reconstitution and analysis. Chromatography was carried out using a Luna™ C5 column (5 μm, 50 mm×2.1 mm id) with a gradient mobile phase consisting of 10 mM ammonium acetate and 2% propan-2-ol in acetonitrile. […]
property: AUC(0-t)

• C[C@]12CC[C@H](O)CC1=CC[C@@H]1[C@@H]2CC[C@]2(C)C(c3cccnc3)=CC[C@@H]12 = 11.6 µM·h

----------
assay-overview: Food effect PK study, two single oral 1000 mg doses of abiraterone acetate, fed (high fat) vs fasted
Type: in vivo, human
test-parameters: human, plasma, oral, 1000 mg, Patient 14; 1000 mg; Fed; read-out: Vz F obs
property: Vd/F (L)

• C[C@]12CC[C@H](O)CC1=CC[C@@H]1[C@@H]2CC[C@]2(C)C(c3cccnc3)=CC[C@@H]12 = 3070

----------
assay-overview: Food effect PK study, two single oral 1000 mg doses of abiraterone acetate, fed (high fat) vs fasted
Format: in vivo, human
test-parameters: human, plasma, oral, 1000 mg, Patient 19; Fed
property: Cmax

* C[C@]12CC[C@H](O)CC1=CC[C@@H]1[C@@H]2CC[C@]2(C)C(c3cccnc3)=CC[C@@H]12 [Abiraterone] | 1020 nM

----------
assay-overview: Food effect PK study, two single oral 1000 mg doses of abiraterone acetate, fed (high fat) vs fasted
Assay type: in vivo, human
test-parameters: human, plasma, oral, 1000 mg, Patient 13; Fed; sample time 4.000 hr
property: concentration at 4 h (nM)

• C[C@]12CC[C@H](O)CC1=CC[C@@H]1[C@@H]2CC[C@]2(C)C(c3cccnc3)=CC[C@@H]12 = 1180

----------
assay-overview: Food effect PK study, two single oral 1000 mg doses of abiraterone acetate, fed (high fat) vs fasted
Type: in vivo, human
test-parameters: human, plasma, po, 1000 mg, mean; 1000 mg single oral dose; Fasted
property: Cmax (nM)

* C[C@]12CC[C@H](O)CC1=CC[C@@H]1[C@@H]2CC[C@]2(C)C(c3cccnc3)=CC[C@@H]12 | 659

----------
assay-overview: Food effect PK study, two single oral 1000 mg doses of abiraterone acetate, fed (high fat) vs fasted
Type: in vivo, human
test-parameters: human, plasma, oral, 1000 mg, Patient 14; Fasted
property: AUC(0-inf)

* C[C@]12CC[C@H](O)CC1=CC[C@@H]1[C@@H]2CC[C@]2(C)C(c3cccnc3)=CC[C@@H]12 | 1.46 µM·h

----------
assay-overview: Food effect PK study, two single oral 1000 mg doses of abiraterone acetate, fed (high fat) vs fasted
Type: in vivo, human
test-parameters: human, plasma, oral, 1000 mg, Patient 13; Fasted; sample time 2.017 hr
property: concentration at 2.017 hr (nM)

• C[C@]12CC[C@H](O)CC1=CC[C@@H]1[C@@H]2CC[C@]2(C)C(c3cccnc3)=CC[C@@H]12 = 500

----------
assay-overview: Food effect PK study, two single oral 1000 mg doses of abiraterone acetate, fed (high fat) vs fasted
Type: in vivo, human
test-parameters: human, plasma, oral, 1000 mg, Patient 15; Fed
property: AUC(0-t) (µM·h)

- C[C@]12CC[C@H](O)CC1=CC[C@@H]1[C@@H]2CC[C@]2(C)C(c3cccnc3)=CC[C@@H]12: 10.1

----------
assay-overview: Food effect PK study, two single oral 1000 mg doses of abiraterone acetate, fed (high fat) vs fasted
Assay type: in vivo, human
test-parameters: human, plasma, oral, 1000 mg, Patient 21; Fasted
property: Tmax (h)

* C[C@]12CC[C@H](O)CC1=CC[C@@H]1[C@@H]2CC[C@]2(C)C(c3cccnc3)=CC[C@@H]12 | 2.17

----------
assay-overview: Food effect PK study, two single oral 1000 mg doses of abiraterone acetate, fed (high fat) vs fasted
Assay type: in vivo, human
test-parameters: human, plasma, oral, 1000 mg, Patient 19; Fed; sample time 23.717 hr
property: concentration at 23.717 hr (nM)

* C[C@]12CC[C@H](O)CC1=CC[C@@H]1[C@@H]2CC[C@]2(C)C(c3cccnc3)=CC[C@@H]12 [Abiraterone] | 63.6

----------
assay-overview: Food effect PK study, two single oral 1000 mg doses of abiraterone acetate, fed (high fat) vs fasted
Format: in vivo, human
test-parameters: human, plasma, oral, 1000 mg, Patient 21; Fed
property: Tmax (h)

- C[C@]12CC[C@H](O)CC1=CC[C@@H]1[C@@H]2CC[C@]2(C)C(c3cccnc3)=CC[C@@H]12: 6

----------
assay-overview: Food effect PK study, two single oral 1000 mg doses of abiraterone acetate, fed (high fat) vs fasted
Assay type: in vivo, human
test-parameters: human, plasma, oral, 1000 mg, Patient 20; 1000 mg; Fed; read-out: Cl F obs (converted)
property: clearance (mL/min)

- C[C@]12CC[C@H](O)CC1=CC[C@@H]1[C@@H]2CC[C@]2(C)C(c3cccnc3)=CC[C@@H]12: 2030
